measurement.protocol: Plasma pharmacokinetics after single subcutaneous doses, clinical phase I study
Type: in vivo, human (healthy male subjects)
assay.context: male, human, sc; 8 mg s.c. single dose, N = 6, plasma
Source text: The time- and dose-dependency of plasma concentration and inhibition of platelet aggregation (IPA) after subcutaneous administration of Compound 1 was investigated in a clinical phase I study in healthy male subjects. […] maximum plasma concentration (Cmax); time to reach Cmax (tmax); area under the plasma concentration-time curve (AUC) from zero to time t of the last measured concentration above the limit of quantification (AUC0−t); and terminal elimination half-life (t1/2). […]
metric.name: AUC(0-t) (ng·h/mL)
API: value field is a number in ng·h/mL; no unit string.

Ask: Look up AUC(0-t): CCCCOC(=O)N1CCN(C(=O)[C@H](CP(=O)(O)O)NC(=O)c2cc(N3CC[C@H](OC)C3)nc(-c3ccccc3)n2)CC1 [Compound 1]
Result: 585
